B1: Segment polarity protein dishevelled homolog DVL-3, residues 2 to 81; numbered along this chain, Q92997 (parent)
chain: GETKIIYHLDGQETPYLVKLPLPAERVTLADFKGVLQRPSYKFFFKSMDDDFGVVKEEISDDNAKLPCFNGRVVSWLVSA

variants of: B1; test: abundance fitness (aPCA) (normalised: wild type 0, dead -1); higher = more abundant; growth selection in yeast, the domain comes from the species named; conditions: Homo sapiens
Observation Type: abundance fitness
The answer should be written as a number, with no unit following it.

The value of abundance fitness measured for the variant GETKIIYHLDGQETPYLVKLPLPAERTTLADFKGVLQRPSYKFFFKSMDDDFGVVKEEISDDNAKLPCFNGRVVSWLVSA [V27T] turned out to be -0.762

The value of abundance fitness measured for the variant GETKIIYHLDGQETPYLVKLPLPAERVTLADFKGVLQRPSYRFFFKSMDDDFGVVKEEISDDNAKLPCFNGRVVSWLVSA [K42R] turned out to be 0.158

The value of abundance fitness measured for the variant GETKIIYHLDGQETPYLVKLPLPAERVTLADFKGVLQRPSYKFFFKSMDDDFGVVKEEISDDNQKLPCFNGRVVSWLVSA [A64Q] turned out to be -0.001

The value of abundance fitness measured for the variant GETKIIYHLDGQETPYLVKLPLPAERVTLADFKGVLQRPSYKFFFKSMDDDFGVVKEEISDDNAKLPCFNYRVVSWLVSA [G71Y] turned out to be -0.64

The value of abundance fitness measured for the variant GETKIIYHLDGQETPYLVKLPLPAEVVTLADFKGVLQRPSYKFFFKSMDDDFGVVKEEISDDNAKLPCFNGRVVSWLVSA [R26V] turned out to be -0.08
